For each entry below, report its IC50 for Inhibition of CXCR4 Activation (β-Arrestin recruitment) value.
target-desc: ProLink tagged human CXCR4 (C2C12 CXCR4 β-Arrestin cell line) (human, UniProt P61073 1-352)
Sequence (P61073 whole entry): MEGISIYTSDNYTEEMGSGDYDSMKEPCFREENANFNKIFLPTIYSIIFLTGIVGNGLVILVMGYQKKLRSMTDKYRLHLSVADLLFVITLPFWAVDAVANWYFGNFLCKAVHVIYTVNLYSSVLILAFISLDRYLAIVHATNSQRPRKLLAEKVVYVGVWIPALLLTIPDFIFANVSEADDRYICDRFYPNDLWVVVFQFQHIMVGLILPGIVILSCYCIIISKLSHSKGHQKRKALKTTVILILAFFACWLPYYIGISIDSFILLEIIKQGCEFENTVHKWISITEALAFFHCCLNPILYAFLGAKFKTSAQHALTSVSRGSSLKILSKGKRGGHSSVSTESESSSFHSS
procedure-summary: cell-based or functional assay
Square brackets hold non-standard residues; d marks the D form. Ends that are not written are not given here.
Numbers only, in nM.

// solved cases for IC50 for Inhibition of CXCR4 Activation (β-Arrestin recruitment) follow
binder: LERFHHSVRSSLRPYTK [SEQ ID NO: 54]
result-unit: nM
numeric-value: 3

binder: LRRYHHSVRSSLDPYTK [SEQ ID NO: 67]
result-unit: nM
numeric-value: 14

List the reported IC50 for Inhibition of CXCR4 Activation (β-Arrestin recruitment) of each binder below.
1. LERFHHS[dA]RSSLRPYTK [SEQ ID NO: 55]
2. LRRYQHSVRSSLRPYTK [SEQ ID NO: 47]
3. LRRYHHSVRSSLR [SEQ ID NO: 27]
4. LRRYHHSVRSSLRP [SEQ ID NO: 26]
5. LRRYHHSVRSSLRPFTK [SEQ ID NO: 59]
6. LERYHNSVRSSLRPYTK [SEQ ID NO: 45]
7. LRRYHHSVRSS [SEQ ID NO: 29]
8. LRRYHHSVESSLRPYTK [SEQ ID NO: 62]

**Result**
4
11
34
67
3
121
46
64
